Values from patent US20230331820A1

Listing of entries alongside the reported RU.
target: gEgI WT: HSV2 gEgI heterodimer comprising gE and gI wildtype ectodomains (HSV2, UniProt P89475 21-416; P06764 21-256); experiment: SPR binning; gEgI captured by mAb 40

>  <binder>
mAb clone 19 (antibody, V domains shown) VH: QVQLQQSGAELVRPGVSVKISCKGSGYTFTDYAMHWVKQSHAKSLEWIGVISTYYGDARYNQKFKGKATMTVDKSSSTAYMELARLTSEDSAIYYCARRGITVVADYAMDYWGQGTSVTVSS VL: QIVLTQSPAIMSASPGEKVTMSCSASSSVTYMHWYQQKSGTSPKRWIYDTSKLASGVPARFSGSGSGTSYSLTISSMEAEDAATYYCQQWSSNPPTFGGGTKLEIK

>  <RU (RU)>
13.9

$$$$
>  <binder>
mAb clone 24 (antibody, V domains shown) VH: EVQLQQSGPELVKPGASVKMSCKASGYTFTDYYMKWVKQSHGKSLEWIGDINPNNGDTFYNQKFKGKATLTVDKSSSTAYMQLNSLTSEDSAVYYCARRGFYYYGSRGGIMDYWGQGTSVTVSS VL: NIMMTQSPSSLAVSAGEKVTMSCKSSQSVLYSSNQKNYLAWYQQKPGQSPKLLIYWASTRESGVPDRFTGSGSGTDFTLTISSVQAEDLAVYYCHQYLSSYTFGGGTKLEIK

>  <RU (RU)>
28.3

$$$$
>  <binder>
mAb clone 39 (antibody, V domains shown) VH: EVKLVESGGGLVQPGGSLKLSCAASGFTFSSYTMSWVRQTPEKRLEWVAYISNGGGSTYYPDTVKGRFTISRDNAKNTLYLQMSSLKSEDTAMYYCARGVSYYGDLYYFDYWGQGTTLTVSS VL: DVVVTQTPLSLPVSFGDQVSISCRSSQSLANSYGNTYLSWYLHKPGQSPQLLIYGISNRFSGVPDRFSGSGSGTDFTLKISTIKPEDLGMYYCLQGTHQPWTFGGGTKLEIK

>  <RU (RU)>
-1.2

$$$$
>  <binder>
mAb clone 34 (antibody, V domains shown) VH: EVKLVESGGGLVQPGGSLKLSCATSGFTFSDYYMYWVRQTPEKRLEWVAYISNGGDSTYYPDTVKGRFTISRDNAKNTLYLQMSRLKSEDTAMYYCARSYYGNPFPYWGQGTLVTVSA VL: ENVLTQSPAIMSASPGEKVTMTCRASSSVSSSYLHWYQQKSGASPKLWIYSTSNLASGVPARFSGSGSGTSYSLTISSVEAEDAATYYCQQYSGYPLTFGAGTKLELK

>  <RU (RU)>
-4.1

$$$$
>  <binder>
mAb clone 20 (antibody, V domains shown) VH: QVQLQQSGAELVRPGTSVKVSCKASGYAFTNYLIEWVKQRPGQGLEWIGVINPGSGGTNYNEKFKGKATLTADKSSSTAYMQLSSLTSDDSAVYFCARSHYGNYYAMDYWGQGTSVTVSS VL: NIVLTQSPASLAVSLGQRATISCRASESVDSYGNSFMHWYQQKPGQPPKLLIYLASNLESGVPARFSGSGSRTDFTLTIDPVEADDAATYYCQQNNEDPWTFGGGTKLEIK

>  <RU (RU)>
21.3

$$$$
